test-summary: Binding affinity against metallo-beta-lactamase bacillus cereus(BCII)
property-measured: Ki
# include the unit after the value

Tell me Ki reported for CC1CS[C@H](c2nc(O)c(-c3ccccc3)[nH]c2=S)NC1C(=O)O (stereo partly specified) 29 µM
